system: MCF-7; experiment: MTT cytotoxicity assay, MCF-7; assay type: cell-based, human; details: 72 h, Table 7, read-out: GI50 ± SC (μM) MCF-7
Labelling: GI50 reported below 40 µM becomes condition met; at or above becomes condition not met.

Input: Could you please tell me whether GI50 recorded for `COc1cc2c(=O)n(CCNP(=O)(OC)OC)c3c4cc5c(cc4ccc3c2cc1OC)OCO5` is less than 40 µM?
Output: condition not met

Input: Now consider `COc1cc2c(=O)n(CCN(C)S(=O)(=O)C(F)(F)F)c3c4cc5c(cc4ccc3c2cc1OC)OCO5` and answer again.
Output: condition met

Input: Now consider `COc1cc2c(=O)n(CCN(C)S(=O)(=O)C3CC3)c3c4cc5c(cc4ccc3c2cc1OC)OCO5` and answer again.
Output: condition met

Input: Now consider `COc1cc2c(=O)n(CCN(C)S(=O)(=O)N3CCOCC3)c3c4cc5c(cc4ccc3c2cc1OC)OCO5` and answer again.
Output: condition not met

Input: Now consider `COc1cc2c(=O)n(CCNS(=O)(=O)N3CCCC3)c3c4cc5c(cc4ccc3c2cc1OC)OCO5` and answer again.
Output: condition met

Input: Now consider `COc1cc2c(=O)n(CCNS(=O)(=O)N(C)C)c3c4cc5c(cc4ccc3c2cc1OC)OCO5` and answer again.
Output: condition met

Input: Now consider `COc1cc2c(=O)n(CCNC(=O)C3CC3)c3c4cc5c(cc4ccc3c2cc1OC)OCO5` and answer again.
Output: condition met

Input: Now consider `COc1cc2c(=O)n(CCN)c3c4cc5c(cc4ccc3c2cc1OC)OCO5` and answer again.
Output: condition met

###

system: MCF-7; assay: MTT cytotoxicity assay, MCF-7; format: cell-based, human; conditions: 72 h, Table 7, read-out: GI50 ± SC (μM) MCF-7
REPORTED METRIC: GI50 (µM)
Only the number, expressed in µM, is required.

Input: What does the data say about its GI50? Entry: `COc1cc2c(=O)n(CCN(C)S(=O)(=O)N3CCCC3)c3c4cc5c(cc4ccc3c2cc1OC)OCO5`
Output: 3.8

Input: Now consider `COc1cc2c(=O)n(CCNS(=O)(=O)N3CCOCC3)c3c4cc5c(cc4ccc3c2cc1OC)OCO5` and answer again.
Output: 0.89

Input: Now consider `CNCCn1c(=O)c2cc(OC)c(OC)cc2c2ccc3cc4c(cc3c21)OCO4` and answer again.
Output: 0.09

Input: Now consider `COc1cc2c(=O)n(CCNS(=O)(=O)C3CC3)c3c4cc5c(cc4ccc3c2cc1OC)OCO5` and answer again.
Output: 3

###

Kindly supply the reported IC50 values for the records listed here.
molecular target: Tdp1 (Homo sapiens); assay: Tdp1 inhibition gel-based assay; conditions: IC50 Tdp1 (μM), Table 6; replicate values listed in one cell
Sequence (Q9NUW8 whole entry): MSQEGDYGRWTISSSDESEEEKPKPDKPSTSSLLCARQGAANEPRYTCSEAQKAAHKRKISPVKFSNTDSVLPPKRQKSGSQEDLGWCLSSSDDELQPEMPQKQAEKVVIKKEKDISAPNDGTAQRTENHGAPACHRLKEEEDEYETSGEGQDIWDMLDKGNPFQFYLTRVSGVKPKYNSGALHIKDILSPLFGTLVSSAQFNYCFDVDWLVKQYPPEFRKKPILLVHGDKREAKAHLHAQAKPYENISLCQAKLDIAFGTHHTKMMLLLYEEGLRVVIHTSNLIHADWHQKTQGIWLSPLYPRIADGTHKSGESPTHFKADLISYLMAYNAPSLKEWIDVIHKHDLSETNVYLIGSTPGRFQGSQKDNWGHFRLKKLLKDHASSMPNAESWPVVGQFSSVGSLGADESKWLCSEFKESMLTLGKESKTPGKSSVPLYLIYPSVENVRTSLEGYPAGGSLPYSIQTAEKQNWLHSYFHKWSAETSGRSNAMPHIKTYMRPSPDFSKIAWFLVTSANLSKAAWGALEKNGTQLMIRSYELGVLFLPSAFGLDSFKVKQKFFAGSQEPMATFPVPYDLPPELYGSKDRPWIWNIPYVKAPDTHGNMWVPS

Input: What does the data say about its IC50? Entry: COc1cc2c(=O)n(CCN(C)C)c3c4ccccc4ccc3c2cc1OC [TWL-44]
Output: > 111 µM

Input: Now consider COc1cc2ccc3c4ccc5c(c4c(=O)n(CCN(C)C)c3c2cc1OC)OCO5 [TWL-189] and answer again.
Output: > 111 µM

Input: Now consider COc1cc2c(NCCCN3CCN(C)CC3)nc3c4cc5c(cc4ccc3c2cc1OC)OCO5 [NTD-312] and answer again.
Output: > 111 µM

Input: Now consider COc1cc2c(OCCCN3CCC3)nc3c4cc5c(cc4ccc3c2cc1OC)OCO5 [NTD-225] and answer again.
Output: 20.6 µM

Input: Now consider CN(C)CCn1c(=O)c2cc3c(cc2c2ccc4ccccc4c21)OCO3 [TWL-40] and answer again.
Output: 18.2 µM

Input: Now consider COc1cc2c(=O)n(CCN(C)C)c3c4cc5c(cc4ccc3c2cc1O)OCO5 [TWL-119] and answer again.
Output: > 111 µM
